target: ePHF (human, UniProt P10636); test: ELISA
Sequence (P10636 2-758): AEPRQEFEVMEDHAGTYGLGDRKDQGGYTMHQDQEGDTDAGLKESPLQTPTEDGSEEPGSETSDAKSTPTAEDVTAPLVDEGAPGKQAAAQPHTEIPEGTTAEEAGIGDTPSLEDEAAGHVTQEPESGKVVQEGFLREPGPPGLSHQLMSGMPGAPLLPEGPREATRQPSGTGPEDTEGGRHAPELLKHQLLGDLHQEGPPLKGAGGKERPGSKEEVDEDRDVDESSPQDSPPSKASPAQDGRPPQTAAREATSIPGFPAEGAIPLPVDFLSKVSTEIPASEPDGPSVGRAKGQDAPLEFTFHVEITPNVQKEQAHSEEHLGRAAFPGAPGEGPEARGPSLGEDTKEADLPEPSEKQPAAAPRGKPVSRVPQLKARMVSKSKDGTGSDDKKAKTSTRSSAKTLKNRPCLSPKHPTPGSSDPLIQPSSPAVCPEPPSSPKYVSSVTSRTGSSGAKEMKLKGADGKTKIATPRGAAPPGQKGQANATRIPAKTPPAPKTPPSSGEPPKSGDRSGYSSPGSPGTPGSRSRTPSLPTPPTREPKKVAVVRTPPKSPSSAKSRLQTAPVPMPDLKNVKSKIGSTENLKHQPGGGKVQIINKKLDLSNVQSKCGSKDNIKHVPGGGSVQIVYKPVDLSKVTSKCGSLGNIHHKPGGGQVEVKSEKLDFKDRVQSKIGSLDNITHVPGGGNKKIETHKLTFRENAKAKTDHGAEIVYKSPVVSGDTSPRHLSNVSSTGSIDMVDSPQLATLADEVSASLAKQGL
observed_property: EC50 (nM)
Expressed in nM, but write only the number.

binder	EC50 [nM]
V0023 (antibody, V domains shown, enriched paired helical filament tau, hyperphosphorylated) VH: QVQLQQPGTELVKPGASVKLSCKASGYTFTIFWMHWVKQRPGHGLEWIGKINPNNGGGDYNEKFKSKATLTVDKSSTTAYLQLSSLTSEDSAVYYCARGTGTGAMDYWGQGTSVTVSS VL: DVVMTQTPLSLPVSLGDHASISCRSSQSLVHSNGITHLYWYLQRPGQTPKLLIYRVSNRFSGVPDRFSGSGSGTDFTLKISSVEAEDLGVYFCFQGTHVPRTFGGGTKLEIE	0.11
V0004 (antibody, V domains shown, enriched paired helical filament tau, hyperphosphorylated) VH: QVQLQQPGAELVKPGASVKLSCKASDYTFTNYWMHWVKQRPGRGLEWIGRIDPNSGGTRYNEKFKNKATLTVDKPSSTAYMHLSSLTSEDSAVYYCAGDFDVWGTGTTVTVSS VL: DIQMTQSPASLSASVGETVTITCRASGNIHNYLAWYQQRQGKSPQLLVYNAKTLPDGVPSRFSGSGSGTQYSLKINSLQPEDFGSYCCQHFWSTPLTFGAGTKLELK	0.083

Note: attention shifts to another entry.
Ask: Using the record for V0022 (antibody, V domains shown, enriched paired helical filament tau, hyperphosphorylated) VH: QVQLQQPGTELVKPGSSVNLSCKASGFTFTRYWMHWVKERPGHGLEWIGNINPNNGGTDFNEKFKNKATLTVHKSSTTVFIQLSSLTSEDSAVYYCARGTGTGAMDYWGQGTSVTVSS VL: DVVMTQTPLSLPVSLGDQASISCRSSQSLVHNNGITYLYWYLQKPGQSPKLLIYRVSNRFSGVPDRFGGSGSGTDFTLKISRVEAEDLGVYFCFQGTHVPRTFGGGTKLEIK , report its EC50.
Reply: 0.07
